# STUDY SYSTEM: E. coli PBP1b (Escherichia coli, UniProt P02919)
# Construct: PBP1bγ(M46-N844) was purified as previously described; made in house
# Sequence (P02919 46-844): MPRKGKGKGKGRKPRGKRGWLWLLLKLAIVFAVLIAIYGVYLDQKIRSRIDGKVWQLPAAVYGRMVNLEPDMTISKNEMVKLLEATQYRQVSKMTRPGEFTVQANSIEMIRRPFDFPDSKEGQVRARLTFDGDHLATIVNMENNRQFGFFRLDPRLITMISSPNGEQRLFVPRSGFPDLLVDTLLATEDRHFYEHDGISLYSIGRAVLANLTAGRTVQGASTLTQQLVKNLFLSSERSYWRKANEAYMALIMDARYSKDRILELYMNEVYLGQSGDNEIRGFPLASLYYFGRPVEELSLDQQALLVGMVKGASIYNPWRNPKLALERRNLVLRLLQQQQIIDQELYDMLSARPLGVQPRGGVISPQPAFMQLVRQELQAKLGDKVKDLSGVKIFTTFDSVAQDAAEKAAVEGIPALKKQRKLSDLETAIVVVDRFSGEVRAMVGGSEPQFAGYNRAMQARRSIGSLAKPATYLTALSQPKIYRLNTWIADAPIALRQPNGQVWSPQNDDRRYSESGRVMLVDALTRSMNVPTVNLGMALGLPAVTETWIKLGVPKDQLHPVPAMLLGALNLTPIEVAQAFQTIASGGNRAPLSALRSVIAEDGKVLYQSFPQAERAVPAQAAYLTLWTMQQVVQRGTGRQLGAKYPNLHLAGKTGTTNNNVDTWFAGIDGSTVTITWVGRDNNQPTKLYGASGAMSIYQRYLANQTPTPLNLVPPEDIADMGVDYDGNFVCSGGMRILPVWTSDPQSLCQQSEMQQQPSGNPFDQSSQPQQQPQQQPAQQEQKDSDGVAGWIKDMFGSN
# EXPERIMENT DESCRIPTION: GTase inhibition assay: residual activity and IC50 of PBP1b (radioactive lipid II endpoint TLC assay, dansyl-lipid II continuous fluorescence assay)
# Type: biochemical
# CONDITION: concentration not given
ASSAY METRIC: Inhibition of GTase activity of PBP1b (in words)

Ask: Would you mind telling me what Inhibition of GTase activity of PBP1b (in words) value was observed for C[C@H](NCCCCN)[C@H]1CCC2C3CCC4=C[C@@H](NCCCCN)CC[C@]4(C)C3CC[C@@]21C (stereo partly shown) ?
Reply: absence of activity

Ask: Value lookup for Inhibition of GTase activity of PBP1b (in words); key = C[C@]12CCC3c4ccc(O)cc4CCC3C1CC[C@@H]2NCCCCN (stereo partly shown)
Reply: absence of activity
